# Tested on: S. aureus Mu50
# assay_text: microbe, parasite or virus in culture
# Assay type: cell-based, Staphylococcus aureus
# study_conditions: Staphylococcus aureus, MU50, read-out: MIC (mg/L) S. aureus Mu50, Example 2, Table 12
Let's look at some molecules and their measured MIC.

>  <molecule>
COc1cc(O)c2c(=O)c(OC)c(-c3cc(O)c(OC)c(OC)c3)oc2c1

>  <quantity_unit>
mg/L

>  <MIC>
8

$$$$
>  <molecule>
O=c1cc(-c2ccc(O)c(O)c2)oc2cc(O)cc(O)c12 [No. 6, 3′,4′,5,7-Tetrahydroxyflavone]

>  <quantity_unit>
mg/L

>  <MIC>
8

$$$$
>  <molecule>
COc1cc(O)c2c(=O)c(OC)c(-c3ccc(O)c(OC)c3)oc2c1

>  <quantity_unit>
mg/L

>  <MIC>
32

$$$$
>  <molecule>
O=c1cc(-c2ccc(O)cc2)oc2cc(O)cc(O)c12 [No. 7, 4′,5,7-Trihydroxyflavone]

>  <quantity_unit>
mg/L

>  <MIC>
4

$$$$
>  <molecule>
CCn1cc(C(=O)O)c(=O)c2cc(F)c(N3CCNCC3)cc21 [Norfloxacin, norfloxacin, reference compound]

>  <quantity_unit>
mg/L

>  <MIC>
64

$$$$
>  <molecule>
O.O=c1c(O)c(-c2ccc(O)c(O)c2)oc2cc(O)cc(O)c12 [No. 1, 3,3′,4′,5,7-Pentahydroxyflavone Hydrate]

>  <quantity_unit>
mg/L

>  <MIC>
32

$$$$
>  <molecule>
COc1ccc2c(=O)cc(-c3ccccc3)oc2c1

>  <quantity_unit>
mg/L

>  <MIC>
32

$$$$

----------
# assayed_target: GyrA(S84L) + GyrB(wt) (Staphylococcus aureus, UniProt P20831, S84L)
# Construct: made in house; host or cells: E. coli BL21(DE3)
# assay_text: DNA cleavage assay with mutant GyrA(S84L) and GyrB(wt)
# Type: biochemical
# study_conditions: IC50 (μg/mL) GyrA(S84L) + GyrB(wt), Example 9, Table 18
pIC50: −log10 of the molar value.

>  <molecule>
COc1ccc2c(=O)cc(-c3ccc(O)c(OC)c3)oc2c1 [M-246]

>  <pIC50>
5.47

$$$$

----------
Readings of MIC (mg/L) FDA209P for the listed compounds
# Test system: S. aureus FDA209P (ATCC 6538P)
# assay_text: microbe, parasite or virus in culture
# Assay type: cell-based, Staphylococcus aureus
# study_conditions: Example 1, Tables 1 to 10
reported_endpoint: MIC (mg/L) FDA209P

>  <compound>
O=c1c(O)c(-c2ccc(O)cc2O)oc2cc(O)cc(O)c12 [compound 3]

>  <assayed_target>
S. aureus FDA209P (ATCC 6538P)

>  <censoring_qualifier>
>

>  <experimental_value>
128

$$$$
>  <compound>
COc1ccc(-c2cc(=O)c3c(OC)cc(OC)cc3o2)cc1

>  <assayed_target>
S. aureus FDA209P (ATCC 6538P)

>  <censoring_qualifier>
=

>  <experimental_value>
128

$$$$
>  <compound>
COc1cc(-c2[o+]c3cc(O)cc(O)c3cc2O)cc(O)c1O

>  <assayed_target>
S. aureus FDA209P (ATCC 6538P)

>  <censoring_qualifier>
=

>  <experimental_value>
128

$$$$
>  <compound>
COc1cc(OC)c2c(=O)cc(-c3ccccc3)oc2c1C

>  <assayed_target>
S. aureus FDA209P (ATCC 6538P)

>  <censoring_qualifier>
>

>  <experimental_value>
128

$$$$
>  <compound>
CC(=O)Oc1cc(OC(C)=O)c2c(=O)c(-c3ccc4c(c3)OCCO4)c(C)oc2c1

>  <assayed_target>
S. aureus FDA209P (ATCC 6538P)

>  <censoring_qualifier>
>

>  <experimental_value>
128

$$$$
>  <compound>
O=c1cc(-c2ccccc2)oc2cccc(O)c12

>  <assayed_target>
S. aureus FDA209P (ATCC 6538P)

>  <censoring_qualifier>
=

>  <experimental_value>
128

$$$$
>  <compound>
Cc1c(O)cc(O)c2c(=O)cc(-c3ccccc3)oc12

>  <assayed_target>
S. aureus FDA209P (ATCC 6538P)

>  <censoring_qualifier>
>

>  <experimental_value>
128

$$$$
>  <compound>
O=c1c(-c2ccc3c(c2)OCCO3)coc2cc(O)cc(O)c12

>  <assayed_target>
S. aureus FDA209P (ATCC 6538P)

>  <censoring_qualifier>
=

>  <experimental_value>
64

$$$$
>  <compound>
CC(C)Oc1ccc(-c2cc(=O)c3c(OC(C)C)cc(OC(C)C)c(I)c3o2)cc1

>  <assayed_target>
S. aureus FDA209P (ATCC 6538P)

>  <censoring_qualifier>
>

>  <experimental_value>
128

$$$$
>  <compound>
COc1cc(OC)c2c(=O)c(OC)c(-c3ccc(OC)c(OC)c3)oc2c1

>  <assayed_target>
S. aureus FDA209P (ATCC 6538P)

>  <censoring_qualifier>
>

>  <experimental_value>
128

$$$$
>  <compound>
COc1cc(OC2OC(CO)C(O)C(O)C2O)c2c(=O)c(-c3ccc(O)cc3)coc2c1 (stereo not drawn)

>  <assayed_target>
S. aureus FDA209P (ATCC 6538P)

>  <censoring_qualifier>
=

>  <experimental_value>
128

$$$$
>  <compound>
O=c1c(-c2ccc(OC3OC(CO)C(O)C(O)C3O)cc2)coc2cc(O)cc(O)c12 (stereo not drawn)

>  <assayed_target>
S. aureus FDA209P (ATCC 6538P)

>  <censoring_qualifier>
>

>  <experimental_value>
128

$$$$
>  <compound>
COc1cc(O)c(CN2CCCCC2)c2oc(-c3ccccc3)cc(=O)c12

>  <assayed_target>
S. aureus FDA209P (ATCC 6538P)

>  <censoring_qualifier>
=

>  <experimental_value>
128

$$$$
>  <compound>
COc1cc(O)c2c(=O)c(-c3cc4c(cc3C)OCCO4)c(C)oc2c1

>  <assayed_target>
S. aureus FDA209P (ATCC 6538P)

>  <censoring_qualifier>
>

>  <experimental_value>
128

$$$$
>  <compound>
COc1c2c(cc3occ(-c4ccc(O)cc4)c(=O)c13)OCO2

>  <assayed_target>
S. aureus FDA209P (ATCC 6538P)

>  <censoring_qualifier>
=

>  <experimental_value>
128

$$$$
>  <compound>
COc1ccc(-c2coc3cc(OC4OC(CO)C(O)C(O)C4O)cc(O)c3c2=O)cc1 (stereo not drawn)

>  <assayed_target>
S. aureus FDA209P (ATCC 6538P)

>  <censoring_qualifier>
=

>  <experimental_value>
128

$$$$
>  <compound>
O=c1c(OC2OC(CO)C(O)C(O)C2O)c(-c2ccc(O)cc2)oc2cc(O)cc(O)c12 (stereo not drawn)

>  <assayed_target>
S. aureus FDA209P (ATCC 6538P)

>  <censoring_qualifier>
>

>  <experimental_value>
128

$$$$
>  <compound>
CC(=O)Oc1cc(OC(C)=O)c2c(=O)c(-c3cc4c(cc3C)OCCO4)c(C)oc2c1

>  <assayed_target>
S. aureus FDA209P (ATCC 6538P)

>  <censoring_qualifier>
=

>  <experimental_value>
128

$$$$
>  <compound>
COc1ccc(-c2oc3cc4c(c(OC)c3c(=O)c2OC)OCO4)cc1

>  <assayed_target>
S. aureus FDA209P (ATCC 6538P)

>  <censoring_qualifier>
>

>  <experimental_value>
128

$$$$
>  <compound>
Cc1cc2c(cc1-c1c(C)oc3cc(O)cc(O)c3c1=O)OCCO2

>  <assayed_target>
S. aureus FDA209P (ATCC 6538P)

>  <censoring_qualifier>
=

>  <experimental_value>
64

$$$$
>  <compound>
O=c1cc(-c2ccccc2)oc2c(O)c(O)ccc12

>  <assayed_target>
S. aureus FDA209P (ATCC 6538P)

>  <censoring_qualifier>
=

>  <experimental_value>
64

$$$$
